Assay: Rat liver microsome stability (RLM) experiment
Format: in vitro ADME
Details: rat liver microsomal stability, Table 5, compounds of the disclosure and comparative compounds
Rule for this label: true (1) means RLM is less than 10 µL/min/mg; false (0) means RLM is at least 10 µL/min/mg.

>  <compound>
CCNC(=O)c1ccc(COc2nn3c(-c4cc(C)on4)nnc3cc2OC)nc1 [drawing 925]

>  <classification>
false (0)

$$$$
>  <compound>
Cc1cc(-c2nnc3c4ccccc4c(OCc4ccccn4)nn23)no1 [drawing 923, reference compound]

>  <classification>
false (0)

$$$$
>  <compound>
COc1cc2nnc(-c3cc(C)on3)n2nc1OCc1ccccn1 [drawing 922]

>  <classification>
true (1)

$$$$
>  <compound>
Cc1cc(-c2nnc3cc(C(C)(C)C)c(OCc4ccccn4)nn23)no1 [drawing 924, reference compound]

>  <classification>
false (0)

$$$$
>  <compound>
CCNC(=O)c1ccc(COc2nn3c(-c4cc(C)on4)nnc3c3ccccc23)nc1 [drawing 926, reference compound]

>  <classification>
false (0)

$$$$
>  <compound>
CCNC(=O)c1ccc(COc2nn3c(-c4cc(C)on4)nnc3cc2C(C)(C)C)nc1 [drawing 927, reference compound]

>  <classification>
false (0)

$$$$

// provenance: patent US12637468B2
